Origin of values: patent US20250277030A1

Could you please report measured Curve Hill Slope (h) for the items listed next?
measurement target: T1, NaPi2b expressed on IGROV-1 cells (Homo sapiens, UniProt O95436)
T1 construct: IGROV-1 cells express endogenous NaPi2b at a high level; endogenous in cells; host or cells: IGROV-1
T1 sequence (O95436 1-690): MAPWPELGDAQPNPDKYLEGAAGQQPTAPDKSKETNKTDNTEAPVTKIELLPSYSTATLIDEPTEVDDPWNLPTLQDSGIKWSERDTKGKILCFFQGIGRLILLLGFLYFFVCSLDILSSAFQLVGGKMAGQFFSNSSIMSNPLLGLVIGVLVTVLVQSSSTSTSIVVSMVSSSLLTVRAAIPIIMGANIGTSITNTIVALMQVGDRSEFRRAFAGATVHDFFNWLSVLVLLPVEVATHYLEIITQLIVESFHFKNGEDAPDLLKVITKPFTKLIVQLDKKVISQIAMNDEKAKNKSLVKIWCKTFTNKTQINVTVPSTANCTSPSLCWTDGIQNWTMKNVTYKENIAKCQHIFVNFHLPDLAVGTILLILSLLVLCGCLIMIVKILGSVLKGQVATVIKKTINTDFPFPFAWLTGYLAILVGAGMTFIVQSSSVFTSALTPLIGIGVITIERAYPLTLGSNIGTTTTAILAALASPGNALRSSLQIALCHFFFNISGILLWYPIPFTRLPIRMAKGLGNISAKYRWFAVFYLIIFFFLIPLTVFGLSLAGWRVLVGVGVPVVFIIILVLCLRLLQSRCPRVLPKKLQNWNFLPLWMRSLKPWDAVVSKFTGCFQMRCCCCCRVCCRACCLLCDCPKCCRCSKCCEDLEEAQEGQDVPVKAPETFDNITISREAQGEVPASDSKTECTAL
method: Cellular binding of bivalent antibodies to IGROV-1 cells by flow cytometry (Example 13)
test context: IGROV-1, 24 hours at 4° C.; NB = no cellular binding
Answers are plain numbers.

molecule	Curve Hill Slope (h)
v29453: humanized anti-NaPi2b IgG1/kappa antibody H4L2; VH SEQ ID NO:27, VL SEQ ID NO:29 (antibody, V domains shown, v29449, v29453, v29457 VH (H4); v29453, v29454, v29455, v29456 VL (L2)) VH: QVQLVQSGAEVKKPGASVKMSCKASGFTFTSYNVHWVRQAPGQGLEWIAAISPGNGDLSYAQKFQGRATLTVDRSTSTAYMELSSLRSEDTAVYYCARGRTGMGAVDYWGQGTLVTVSS VL: DVQMTQSPSSLSASVGDRVTITCRASQDVYSYLNWYQQKPGKAVKLLIYYTSRLQSGVPSRFSGSGSGTDYTLTISSLQPEDFATYYCQQYNIFPWTFGQGTKLEIK	1.2
v29458: humanized anti-NaPi2b IgG1/kappa antibody H3L1; VH SEQ ID NO:26, VL SEQ ID NO:28 (antibody, V domains shown, v29450, v29454, v29458 VH (H3); v29457, v29458, v29459, v29460 VL (L1)) VH: QVQLVQSGAEVKKPGASVKMSCKASGFTFTSYNVHWVRQAPGQGLEWIAAISPGNGDLSYAQKFQGRATLTVDTSTSTAYMELSSLRSEDTAVYYCARGRTGMGAVDYWGQGTLVTVSS VL: DIQMTQSPSSLSASVGDRVTITCRASQDVYSYLNWYQQKPGKAPKLLIYYTSRLQSGVPSRFSGSGSGTDFTLTISSLQPEDFATYYCQQYNIFPWTFGQGTKLEIK	1.1

// next entry
-- ask Need Curve Hill Slope (h) of v29451: humanized anti-NaPi2b IgG1/kappa antibody H2L3; VH SEQ ID NO:25, VL SEQ ID NO:30 (antibody, V domains shown, v29451, v29455, v29459 VH (H2); v29449, v29450, v29451, v29452 VL (L3)) VH: QVQLVQSGAEVKKPGASVKVSCKASGFTFTSYNVHWVRQAPGQGLEWIAAISPGNGDLSYAQKFQGRVTMTVDTSTSTVYMELSSLRSEDTAVYYCARGRTGMGAVDYWGQGTLVTVSS VL: DVQMTQSPSSLSASVGDRVTITCRASQDVYSYLNWYQQKPGKAVKLLIYYTSRLQSGVPSRFSGSGSGTDYTLTISSLQPEDIATYYCQQYNIFPWTFGQGTKLEIK , thanks.
-- reply 1.1
